Would you kindly list Total IgG binding, Sterilized for each of these substances?
- System: ^125I-IgG (goat anti-mouse)
- Protocol Summary: Radiometric determination of IgG binding to surfactant-coated polystyrene microtiter wells
- Condition Parameters: gamma sterilized (1.5 Mrad); after three PBS washes
Please provide the amount together with its unit, number first.

Some substances with recorded Total IgG binding, Sterilized:
PEO(4) SORBITOL MONO-LAURATE: 5 ng/cm^2
PEO(4) SORBITOL MONO-STEARATE: 130 ng/cm^2
PEO(20) SORBITOL TRI-STEARATE: 7 ng/cm^2

From here, focus on the item given below.
Look up and report measured Total IgG binding, Sterilized for this entry: SORBITOL MONO-OLEATE
33 ng/cm^2

---

Would you kindly list Tight IgG binding, Non-Sterilized for each of these substances?
- Tested on: ^125I-IgG (goat anti-mouse)
- Protocol Summary: Radiometric determination of IgG binding to surfactant-coated polystyrene microtiter wells
- Condition Parameters: not sterilized; after two hours in PBS-Tween (0.05%)
One number for each entry, in ng/cm^2.

Some substances with recorded Tight IgG binding, Non-Sterilized:
PEO(20) SORBITOL TRI-STEARATE: 2
PEO(4) SORBITOL MONO-LAURATE: 2
SORBITOL MONO-OLEATE: 7

From here, focus on the item given below.
Look up and report Tight IgG binding, Non-Sterilized, with ^125I-IgG (goat anti-mouse) as system, for PEO(4) SORBITOL MONO-STEARATE
18

---

- System: ^125I-IgG (goat anti-mouse)
- Protocol Summary: Radiometric determination of IgG binding to surfactant-coated polystyrene microtiter wells
- Condition Parameters: gamma sterilized (1.5 Mrad); after three PBS washes
Classification field: enter Satisfied for Total IgG binding, Sterilized values not below 20 ng/cm^2, Not satisfied for values below it.

Example results:
CCCCCCCCCCCCOCCOCCOCCOCCO [PEO(4) LAURYL ETHER]: Not satisfied
CCCCCCCCCCCCCCCCCCOCCOCCO [PEO(2) STEARYL ETHER]: Satisfied
CCCCCCCCCCCCCCCCOCCOCCO [PEO(2) CETYL ETHER]: Satisfied
CCCCCCCC/C=C\CCCCCCCCOCCOCCO [PEO(2) OLEYL ETHER]: Satisfied

Switching to the query record.
Reported Total IgG binding, Sterilized at or above 20 ng/cm^2? CCCCCCCCCCCCCCCCCC(=O)OCCOCCOCCOCCOCCOCCOCCOCCO [PEO(8) STEARATE]
Not satisfied

---

- System: ^125I-IgG (goat anti-mouse)
- Protocol Summary: Radiometric determination of IgG binding to surfactant-coated polystyrene microtiter wells
- Condition Parameters: not sterilized; after two hours in PBS-Tween (0.05%)
- Description: The hydrophobic surfaces used were flat bottom microtiter plates composed of high binding polystyrene (Corning Costar No. 2581) and medium binding polystyrene (Corning Costar No. 2587). Testing was performed with and without gamma radiation sterilization using cobalt 60 (1.5 Mrad). […] Levels of protein binding were determined using a radiolabeled protein, namely, ^125I-IgG (goat anti-mouse) purchased from DuPont/NEN. […]
Lab note: cut-off is 10 ng/cm^2. Strictly less in Tight IgG binding, Non-Sterilized is satisfied. Exactly 10 ng/cm^2 or more is not satisfied.

Example results:
CCCCCCCCCCCCOCCOCCOCCOCCO [PEO(4) LAURYL ETHER]: satisfied
CCCCCCCCCCCCCCCCOCCOCCO [PEO(2) CETYL ETHER]: not satisfied
CCCCCCCCCCCCCCCCCCOCCOCCO [PEO(2) STEARYL ETHER]: not satisfied

Determine if CCCCCCCCCCCCCCCCCC(=O)OCCOCCOCCOCCOCCOCCOCCOCCO [PEO(8) STEARATE] shows Tight IgG binding, Non-Sterilized strictly lower than 10 ng/cm^2.
satisfied

Determine if CCCCCCCC/C=C\CCCCCCCCOCCOCCO [PEO(2) OLEYL ETHER] shows Tight IgG binding, Non-Sterilized strictly lower than 10 ng/cm^2.
satisfied
